Provide the recorded GI50 for the entries that follow.
# System: HCC 2998
# Assay Text: NCI tumour cell line growth inhibition, 48 h
The source made the active and inactive calls. Cut-off read from the data, not from the text of the source: active = GI50 up to about 1.1 µM and inactive = higher.

Request: Identify the reported GI50 for the following entry. CC1OC2OC3C(OCC(O)C3O)OC(=O)[C@]34CCC(C)(C)CC3C3=CCC5[C@@]6(C)C[C@H](O)[C@H](OC7OC(CO)C(O)C(O)C7OC7OC(COC(=O)CC(C)(O)CC(=O)OC1C(OC1OC(CO)C(O)C(O)C1O)C2O)C(O)C(O)C7O)[C@@](C)(CO)C6CC[C@@]5(C)[C@]3(C)CC4 (some centres not stated)
Response: 1.42 µM (inactive)

Request: Identify the reported GI50 for the following entry. CCOC(=O)[C@H]1Nc2ccc(O)cc2C2c3ccccc3CC21 (some centres not stated)
Response: 49 µM (inactive)

Request: Identify the reported GI50 for the following entry. O=C1OC(c2ccc(O)c(Cl)c2)(c2ccc(O)c(Cl)c2)c2ccc(Br)c3cccc1c23.O=C1OC(c2ccc(O)c(Cl)c2)(c2ccc(O)c(Cl)c2)c2cccc3c(Br)ccc1c23
Response: 19.3 µM (inactive)

Request: Identify the reported GI50 for the following entry. COc1ccccc1/C=C1\S/C(=N/Nc2nc(C)c(C(C)=O)s2)NC1=O
Response: 94.6 µM (inactive)

Request: Identify the reported GI50 for the following entry. CC1(C)OCC(CO)(Nc2nc(N3CC3)nc(N3CC3)n2)CO1
Response: 16.9 µM (inactive)

Request: Identify the reported GI50 for the following entry. CC(=O)N1CN2C(=O)CCC2c2ccccc21 (configuration not stated)
Response: > 100 µM (inactive)

Request: Identify the reported GI50 for the following entry. CCOC(=O)C(Cc1c2ccccc2cc2ccccc12)(NC(C)=O)C(=O)OCC
Response: > 100 µM (inactive)
